Reference source for all entries: ChEMBL document CHEMBL3860038

- Assayed system: Epidermal growth factor receptor (Homo sapiens, UniProt P00533, L858R/T790M)
- Sequence (P00533 25-1210 T790M/L858R limits assumed): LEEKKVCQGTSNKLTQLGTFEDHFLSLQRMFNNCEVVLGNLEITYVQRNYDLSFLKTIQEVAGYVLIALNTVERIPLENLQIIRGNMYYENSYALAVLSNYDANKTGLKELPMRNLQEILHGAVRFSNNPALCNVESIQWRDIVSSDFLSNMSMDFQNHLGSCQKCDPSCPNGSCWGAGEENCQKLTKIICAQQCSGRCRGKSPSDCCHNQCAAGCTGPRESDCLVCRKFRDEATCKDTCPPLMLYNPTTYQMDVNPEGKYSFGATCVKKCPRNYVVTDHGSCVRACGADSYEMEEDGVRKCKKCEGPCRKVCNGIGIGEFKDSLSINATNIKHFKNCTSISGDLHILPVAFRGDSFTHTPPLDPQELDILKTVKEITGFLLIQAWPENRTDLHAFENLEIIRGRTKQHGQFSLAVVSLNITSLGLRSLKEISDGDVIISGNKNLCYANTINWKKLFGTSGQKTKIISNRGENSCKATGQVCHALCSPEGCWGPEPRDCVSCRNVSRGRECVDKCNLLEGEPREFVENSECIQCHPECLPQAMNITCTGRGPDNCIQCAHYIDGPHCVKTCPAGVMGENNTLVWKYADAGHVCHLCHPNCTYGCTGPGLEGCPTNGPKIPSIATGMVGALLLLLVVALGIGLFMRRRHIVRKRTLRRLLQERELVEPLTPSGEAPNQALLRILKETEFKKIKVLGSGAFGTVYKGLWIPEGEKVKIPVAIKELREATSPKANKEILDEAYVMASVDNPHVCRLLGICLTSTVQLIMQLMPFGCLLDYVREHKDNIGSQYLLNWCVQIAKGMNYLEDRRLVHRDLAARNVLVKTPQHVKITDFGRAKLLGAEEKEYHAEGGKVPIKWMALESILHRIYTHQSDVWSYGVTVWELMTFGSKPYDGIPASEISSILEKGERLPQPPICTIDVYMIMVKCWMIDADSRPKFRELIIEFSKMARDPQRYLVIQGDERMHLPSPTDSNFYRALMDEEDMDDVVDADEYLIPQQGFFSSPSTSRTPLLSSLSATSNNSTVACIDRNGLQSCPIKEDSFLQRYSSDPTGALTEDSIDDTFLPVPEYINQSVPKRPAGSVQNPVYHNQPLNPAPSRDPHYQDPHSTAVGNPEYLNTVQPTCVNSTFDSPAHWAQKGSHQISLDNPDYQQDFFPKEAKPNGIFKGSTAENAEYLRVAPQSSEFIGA
- Assay comment: Inhibition of N-terminal 6x-HIS-tagged human recombinant EGFR (696 to 1022 residues) L858R/T790M mutant expressed in Sf9 cells pre-incubated for 0 mins followed by 1 mM ATP addition by HTRF assay
pIC50: −log10 of the molar value.
Recorded endpoint: pIC50

Please review the following examples before continuing.
- Compound: "C=CC(=O)N[C@H]1CCC[C@@H](n2c(NC(=O)c3cccc(C(F)(F)F)c3)nc3cc(C)ccc32)C1 (racemic)"
  pIC50: "< 4.30"
- Compound: "C=CC(=O)N1CCCC(n2c(NC(=O)c3cccc(C(F)(F)F)c3)nc3cc(C)ccc32)C1 (stereo not drawn)"
  pIC50: "< 4.30"

Give pIC50 for all compounds that follow.
1. C=CC(=O)Nc1ccc(-n2c(NC(=O)c3cccc(C(F)(F)F)c3)nc3cc(C)ccc32)cc1
2. C=CC(=O)N[C@H]1CC[C@@H](n2c(NC(=O)c3cccc(C(F)(F)F)c3)nc3cc(C)ccc32)CC1
3. C=CC(=O)NC1CCC(n2c(NC(=O)c3cccc(C(F)(F)F)c3)nc3cc(C)ccc32)C1 (stereo not drawn)
4. C=CC(=O)NCCn1c(NC(=O)c2cccc(C(F)(F)F)c2)nc2cc(C)ccc21
5. C=CC(=O)N[C@@H]1CCC[C@@H](n2c(NC(=O)c3cccc(C(F)(F)F)c3)nc3cc(C)ccc32)C1 (racemic)
6. C=CC(=O)N1CCCC(n2c(NC(=O)c3cccc(C(F)(F)F)c3)nc3cc(C)ccc32)CC1 (stereo not drawn)

### Response
< 4.30
< 4.30
< 4.30
< 4.30
< 4.30
< 4.30

###

- Assay comment: Intrinsic clearance in mouse liver microsomes
- Type: ADME
- Run parameters: read-out: CLH
Recorded endpoint: microsomal CLint (µL/min/mg)
Numbers only, in µL/min/mg.

- Entry smiles: "C=CC(=O)N1CCCC[C@@H](n2c(NC(=O)c3cccc(C(F)(F)F)c3)nc3cccc(C)c32)C1"
  microsomal CLint, µL/min/mg: 245
- Entry smiles: "Cc1cc(C(=O)Nc2nc3cccc(Cl)c3n2[C@@H]2CCCCN(C(=O)/C=C/CN(C)C)C2)ccn1"
  microsomal CLint, µL/min/mg: 66
- Entry smiles: "Cc1cc(C(=O)Nc2nc3cccc(C)c3n2[C@@H]2CCCCN(C(=O)/C=C/CN(C)C)C2)ccn1"
  microsomal CLint, µL/min/mg: 62
- Entry smiles: "Cc1cccc2nc(NC(=O)c3ccnc(C(F)(F)F)c3)n([C@@H]3CCCCN(C(=O)/C=C/CN(C)C)C3)c12"
  microsomal CLint, µL/min/mg: 96

Now consider a different molecule.
### Prompt Item under review: Cc1cccc2nc(NC(=O)c3cccc(C(F)(F)F)c3)n([C@@H]3CCCCN(C(=O)/C=C/CN(C)C)C3)c12 . Reported microsomal CLint?
### Response 233

###

- Assayed system: Epidermal growth factor receptor (Homo sapiens, UniProt P00533, L858R)
- Sequence (P00533 25-1210 L858R limits assumed): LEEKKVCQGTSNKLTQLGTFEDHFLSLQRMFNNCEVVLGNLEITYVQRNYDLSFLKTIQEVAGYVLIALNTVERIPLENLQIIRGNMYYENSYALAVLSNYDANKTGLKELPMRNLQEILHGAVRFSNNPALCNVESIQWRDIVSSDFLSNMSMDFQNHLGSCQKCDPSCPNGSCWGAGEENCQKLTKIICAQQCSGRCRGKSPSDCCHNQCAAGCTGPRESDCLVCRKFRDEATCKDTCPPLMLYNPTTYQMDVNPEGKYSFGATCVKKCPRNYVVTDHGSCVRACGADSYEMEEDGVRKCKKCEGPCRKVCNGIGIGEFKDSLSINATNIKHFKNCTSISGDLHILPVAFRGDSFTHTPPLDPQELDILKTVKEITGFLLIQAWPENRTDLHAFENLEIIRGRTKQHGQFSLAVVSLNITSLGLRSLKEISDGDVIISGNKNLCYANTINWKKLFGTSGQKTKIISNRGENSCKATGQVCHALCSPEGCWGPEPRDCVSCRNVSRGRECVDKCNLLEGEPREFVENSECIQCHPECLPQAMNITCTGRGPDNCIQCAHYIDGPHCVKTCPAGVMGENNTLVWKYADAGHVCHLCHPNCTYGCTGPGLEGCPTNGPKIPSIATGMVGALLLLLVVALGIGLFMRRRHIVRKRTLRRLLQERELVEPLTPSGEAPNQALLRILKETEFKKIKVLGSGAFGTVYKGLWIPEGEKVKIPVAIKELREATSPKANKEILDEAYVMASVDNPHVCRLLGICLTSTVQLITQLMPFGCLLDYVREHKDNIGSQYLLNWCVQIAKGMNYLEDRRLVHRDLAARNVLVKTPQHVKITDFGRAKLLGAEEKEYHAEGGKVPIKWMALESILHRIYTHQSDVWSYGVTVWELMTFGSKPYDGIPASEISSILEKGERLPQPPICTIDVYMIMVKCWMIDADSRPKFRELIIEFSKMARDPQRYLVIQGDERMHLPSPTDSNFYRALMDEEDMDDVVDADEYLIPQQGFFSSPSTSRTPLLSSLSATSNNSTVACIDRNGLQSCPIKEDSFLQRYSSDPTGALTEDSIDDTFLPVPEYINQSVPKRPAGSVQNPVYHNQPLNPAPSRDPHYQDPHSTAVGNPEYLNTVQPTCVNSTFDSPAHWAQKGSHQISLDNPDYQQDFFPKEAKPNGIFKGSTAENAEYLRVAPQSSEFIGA
- Assay comment: Inhibition of EGFR L858R mutant phosphorylation in human patient derived H3255 cells incubated for 3 hrs by ELISA method
- Type: cell-based
So I've got a bunch of compounds here, and I need their pIC50 values.
Give bare numbers, as −log10 of the molar value.

Give pIC50 for all compounds that follow.
1. C=CC(=O)N1CCCC(n2c(NC(=O)c3cccc(C(F)(F)F)c3)nc3cc(C)ccc32)C1 (configuration not stated)
2. C=CC(=O)Nc1cccc(-n2c(NC(=O)c3cccc(C(F)(F)F)c3)nc3cc(C)ccc32)c1

### Response
1: 6.38; 2: 5.98

Give pIC50 for all compounds that follow.
1. Cc1cccc2nc(NC(=O)c3ccnc(C(F)(F)F)c3)n([C@@H]3CCCCN(C(=O)/C=C/CN(C)C)C3)c12
2. C=CC(=O)N1CCCCC(n2c(NC(=O)c3cccc(C(F)(F)F)c3)nc3cc(C)ccc32)C1 (configuration not stated)
3. Cc1cccc2nc(NC(=O)c3cccc(C(F)(F)F)c3)n([C@@H]3CCCCN(C(=O)/C=C/CN(C)C)C3)c12
4. Cc1cc(C(=O)Nc2nc3cccc(C)c3n2[C@@H]2CCCCN(C(=O)/C=C/CN(C)C)C2)ccn1
5. C=CC(=O)N1CCCC[C@@H](n2c(NC(=O)c3cccc(C(F)(F)F)c3)nc3cccc(C)c32)C1

### Response
8.58
7.13
7.34
8.52
7.83

###

So I've got a bunch of compounds here, and I need their solubility values.
- Assay comment: Aqueous solubility of the compound at pH 6.8
- Assay type: physicochemical

Please review the following examples before continuing.
- Entry smiles: "Cc1cc(C(=O)Nc2nc3cccc(C)c3n2[C@@H]2CCCCN(C(=O)/C=C/CN(C)C)C2)ccn1"
  Measured result: "> 175 µM"
- Entry smiles: "Cc1cc(C(=O)Nc2nc3cccc(Cl)c3n2[C@@H]2CCCCN(C(=O)/C=C/CN(C)C)C2)ccn1"
  Measured result: "> 175 µM"

Now consider a different compound.
### Prompt Item under review: C=CC(=O)N1CCCC[C@@H](n2c(NC(=O)c3cccc(C(F)(F)F)c3)nc3cccc(C)c32)C1 . Reported solubility?
### Response < 2 µM

###

- Assayed system: Epidermal growth factor receptor (Homo sapiens, UniProt P00533, L858R/T790M)
- Assay comment: Inhibition of N-terminal 6x-HIS-tagged human recombinant EGFR (696 to 1022 residues) L858R/T790M mutant expressed in Sf9 cells pre-incubated for 90 mins followed by 1 mM ATP addition by HTRF assay
So I've got a bunch of molecules here, and I need their IC50 values.

Please review the following examples before continuing.
- Molecule: "C=CC(=O)N1CC(n2c(NC(=O)c3cccc(C(F)(F)F)c3)nc3cc(C)ccc32)C1"
  IC50: "> 50 µM"
- Molecule: "C=CC(=O)N[C@H]1CCCC[C@H]1n1c(NC(=O)c2cccc(C(F)(F)F)c2)nc2cc(C)ccc21 (racemic)"
  IC50: "> 50 µM"
- Molecule: "C=CC(=O)NCCn1c(NC(=O)c2cccc(C(F)(F)F)c2)nc2cc(C)ccc21"
  IC50: "> 50 µM"
- Molecule: "C=CC(=O)N1CCCCC(n2c(NC(=O)c3cccc(C(F)(F)F)c3)nc3cc(C)ccc32)C1 (stereo unspecified)"
  IC50: "< 0.002 µM"
- Molecule: "C=CC(=O)N[C@H]1CC[C@H](n2c(NC(=O)c3cccc(C(F)(F)F)c3)nc3cc(C)ccc32)CC1"
  IC50: "> 50 µM"

Give IC50 for all molecules that follow.
1. C=CC(=O)N1CCCC(n2c(NC(=O)c3cccc(C(F)(F)F)c3)nc3cc(C)ccc32)CC1 (stereo unspecified)
2. C=CC(=O)N[C@@H]1CCCC[C@H]1n1c(NC(=O)c2cccc(C(F)(F)F)c2)nc2cc(C)ccc21 (racemic)
3. C=CC(=O)Nc1ccccc1-n1c(NC(=O)c2cccc(C(F)(F)F)c2)nc2cc(C)ccc21
4. C=CC(=O)N1CCC(n2c(NC(=O)c3cccc(C(F)(F)F)c3)nc3cc(C)ccc32)C1 (stereo unspecified)

### Response
> 50 µM
> 50 µM
> 32.8 µM
> 50 µM

Give IC50 for all molecules that follow.
1. C=CC(=O)Nc1ccc(-n2c(NC(=O)c3cccc(C(F)(F)F)c3)nc3cc(C)ccc32)cc1
2. C=CC(=O)N[C@H]1CC[C@@H](n2c(NC(=O)c3cccc(C(F)(F)F)c3)nc3cc(C)ccc32)CC1

### Response
> 50 µM
> 50 µM
